Molecular target: T1, human CD73 on Calu6 cells (human, UniProt P21589 27-549)
T1 sequence (looked up): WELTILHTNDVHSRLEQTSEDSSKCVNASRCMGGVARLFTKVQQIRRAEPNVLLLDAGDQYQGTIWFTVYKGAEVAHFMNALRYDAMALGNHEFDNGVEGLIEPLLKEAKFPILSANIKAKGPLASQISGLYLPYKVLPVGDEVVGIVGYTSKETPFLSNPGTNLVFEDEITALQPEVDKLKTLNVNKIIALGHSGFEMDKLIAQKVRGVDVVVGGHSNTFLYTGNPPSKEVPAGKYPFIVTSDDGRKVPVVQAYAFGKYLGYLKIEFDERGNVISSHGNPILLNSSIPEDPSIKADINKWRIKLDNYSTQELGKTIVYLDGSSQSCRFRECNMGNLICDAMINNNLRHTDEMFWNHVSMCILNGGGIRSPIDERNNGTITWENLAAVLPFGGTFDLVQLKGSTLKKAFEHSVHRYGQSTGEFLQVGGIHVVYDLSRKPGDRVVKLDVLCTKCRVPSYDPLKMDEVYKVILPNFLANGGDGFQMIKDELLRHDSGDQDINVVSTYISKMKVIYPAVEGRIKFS
Test: cell-based or functional assay
OBSERVATION TYPE: CD73 endocytosis ratio %, 120 minutes (%)
Write the number in % without appending the unit.

Study these solved cases before continuing.
[
  {
    "BINDER": "CD73 antibody 14E4 (antibody, V domains shown, Mouse variable regions on human IgG heavy chain constant region and human kappa constant region (chimeric IgG); also called Clone 14E4) VH: QVQLQQSGPELVKPGASVKISCKASGYIFTNYYIHWVKQRPGQGLEWIGWIFPGSGNTKYSEKFKDKATLTADTSSSTAYMQLSSLTSEDSAVYFCAGLSDWGQGTTLTVSS VL: DIQMTQSPSSLSASLGERVSLTCRASQDIGDRLIWLQQEPAGTFKRLIYATSSLDSGVPKRFSGSRSGSDYSLTISSLESEDFVDYYCLQYASSPWTFGGGTKLEIK",
    "OBSERVATION TYPE": "CD73 endocytosis ratio %, 120 minutes",
    "READOUT UNITS": "%",
    "REPORTED": 2.6
  },
  {
    "BINDER": "CD73 antibody 6G8 (chimeric) (antibody, V domains shown, Mouse variable regions on human IgG heavy chain constant region and human kappa constant region (chimeric IgG); also called Clone 6G8; 6G8 Chimera) VH: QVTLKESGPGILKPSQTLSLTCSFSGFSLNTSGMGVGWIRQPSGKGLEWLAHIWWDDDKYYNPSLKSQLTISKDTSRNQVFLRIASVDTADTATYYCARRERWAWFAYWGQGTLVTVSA VL: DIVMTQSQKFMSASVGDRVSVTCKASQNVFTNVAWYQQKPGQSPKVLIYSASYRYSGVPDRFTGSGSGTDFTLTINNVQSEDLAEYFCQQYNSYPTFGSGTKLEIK",
    "OBSERVATION TYPE": "CD73 endocytosis ratio %, 120 minutes",
    "READOUT UNITS": "%",
    "REPORTED": 22.2
  }
]

Continue with the next binder.
Q: Report measured CD73 endocytosis ratio %, 120 minutes; entry is CD73 antibody 2H2 (antibody, V domains shown, also called Clone 2H2) VH: EVKLVESGGGLVQPGGSLKLSCATSGFTFSDYYMYWVRQTPEKRLEWVAYISNVGGSTYYPDTVKGRFTISRDNAKNTLYLQMSRLKSEDTAMYYCARGDGYYGYYFDVWGAGTTVTVSS VL: ENVLTQSPAIMSASPGEKVTMTCSASSSVSYMHWYQQKSGTSPKRWIYDTSKLASGVPTRFSGSGSGTSFSLTISSMEAEDAATYYCQQWSSNPYTFGGGTKLEIK
Result: 45.8
